Entries with reported IC50 on human JAK2 (aa 826-1132) (Homo sapiens)
Sequence (O60674 826-1132): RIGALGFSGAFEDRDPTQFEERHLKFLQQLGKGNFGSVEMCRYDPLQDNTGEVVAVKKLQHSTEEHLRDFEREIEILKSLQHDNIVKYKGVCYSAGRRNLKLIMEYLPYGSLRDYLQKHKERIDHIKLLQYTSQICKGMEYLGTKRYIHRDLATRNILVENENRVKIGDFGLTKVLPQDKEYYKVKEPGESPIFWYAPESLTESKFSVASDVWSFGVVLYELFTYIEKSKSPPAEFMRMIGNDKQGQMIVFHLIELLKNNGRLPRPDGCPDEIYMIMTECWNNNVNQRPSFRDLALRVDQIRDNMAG
measured-quantity: IC50

{"columns": ["molecule", "reported-value"],
 "data": [
  ["O=c1[nH]c2cnc(-c3cnn4cc(F)ccc34)nc2n1C1CCOCC1 [Example 89]", "< 100 nM"],
  ["CS(=O)(=O)N1CCC(n2c(=O)[nH]c3ccc(-c4cnc5ccc(F)cn45)nc32)CC1 [Example 71]", "< 100 nM"],
  ["CS(=O)(=O)N1CCC[C@@H](n2c(=O)[nH]c3cnc(-c4cnc5ccc(F)cn45)nc32)C1 [Example 62]", "< 100 nM"],
  ["CC1(C)CC(n2c(=O)[nH]c3cnc(-c4cnc5ccc(F)cn45)nc32)c2cccnc2O1 (stereo not drawn) [Example 42]", "100 to 1000 nM"],
  ["O=c1[nH]c2c(N3CCNCC3)nc(-c3cnc4ccc(F)cn34)nc2n1C1CCOCC1 [Example 98]", "< 100 nM"],
  ["O=c1[nH]c2cnc(-c3cnn4cccnc34)cc2n1C1CCOCC1 [Example 92]", "< 100 nM"]
]}
